Listed below: inhibition at 10 µg/mL values for each entry.
assay.comment: Antiinflammatory activity in human neutrophils assessed as inhibition of fMLP/cytochalasin B-induced superoxide anion production at 10 ug/mL after 5 mins by spectrophotometer analysis
Format: functional
test.context: Neutrophil
Give just the number in %; leave the unit off.

Here's what some known entries look like.
molecule="C/C=C(/C)C(=O)O[C@@H]1Oc2cc(C)ccc2[C@@]1(C)O (relative stereo)" value_type="inhibition at 10 µg/mL" obs_value=37.1
molecule=O=c1ccc2ccccc2o1 value_type="inhibition at 10 µg/mL" obs_value=8.5
molecule=C=C(C)c1cc2cc(C(C)=O)c(O)cc2o1 value_type="inhibition at 10 µg/mL" obs_value=13.7

Exercise: Fill blank: measured inhibition at 10 µg/mL of the molecule `CC(=O)C(=O)c1ccc(C)cc1O` is ____.
Key: 10.1

Exercise: Endpoint output: inhibition at 10 µg/mL of `C=C(COC(=O)/C(C)=C\C)c1ccc(C)cc1O` . Value?
Key: 20.3
